Data provenance is BigSolDB 2.1.

Conditions: in ethanol, 283.15 K
experimental-readout: solubility (mole fraction)
Please state the value as a number alone, without comment.

solubility (mole fraction) in this record for C[C@@H](O)[C@H]1C(=O)N2C(C(=O)[O-])=C(SC3Cn4cnc[n+]4C3)[C@H](C)[C@H]12 (stereo partly specified) : 1.49e-05

----------
Settings: in ethyl acetate, 288.15 K
experimental-readout: solubility (mole fraction)

solubility (mole fraction) in this record for C[C@@H](O)[C@H]1C(=O)N2C(C(=O)[O-])=C(SC3Cn4cnc[n+]4C3)[C@H](C)[C@H]12 (stereo partly specified) : 5.73e-05

----------
Conditions: in isopropanol, 318.15 K
experimental-readout: solubility (mole fraction)
Please state the value as a number alone, without comment.

solubility (mole fraction) in this record for C[C@@H](O)[C@H]1C(=O)N2C(C(=O)[O-])=C(SC3Cn4cnc[n+]4C3)[C@H](C)[C@H]12 (stereo partly specified) : 2.37e-05

----------
Settings: in acetonitrile, 283.15 K
experimental-readout: solubility (mole fraction)
Please state the value as a number alone, without comment.

solubility (mole fraction) in this record for C[C@@H](O)[C@H]1C(=O)N2C(C(=O)[O-])=C(SC3Cn4cnc[n+]4C3)[C@H](C)[C@H]12 (stereo partly specified) : 3.63e-05

----------
Conditions: in acetone, 318.15 K
experimental-readout: solubility (mole fraction)
Please state the value as a number alone, without comment.

solubility (mole fraction) in this record for C[C@@H](O)[C@H]1C(=O)N2C(C(=O)[O-])=C(SC3Cn4cnc[n+]4C3)[C@H](C)[C@H]12 (stereo partly specified) : 1.39e-05

----------
Conditions: in NMP, 318.15 K
experimental-readout: solubility (mole fraction)
Please state the value as a number alone, without comment.

solubility (mole fraction) in this record for C[C@@H](O)[C@H]1C(=O)N2C(C(=O)[O-])=C(SC3Cn4cnc[n+]4C3)[C@H](C)[C@H]12 (stereo partly specified) : 0.000141

----------
Conditions: in DMF, 298.15 K
experimental-readout: solubility (mole fraction)
Please state the value as a number alone, without comment.

solubility (mole fraction) in this record for C[C@@H](O)[C@H]1C(=O)N2C(C(=O)[O-])=C(SC3Cn4cnc[n+]4C3)[C@H](C)[C@H]12 (stereo partly specified) : 7.8e-05

----------
Details: in NMP, 288.15 K
experimental-readout: solubility (mole fraction)

solubility (mole fraction) in this record for C[C@@H](O)[C@H]1C(=O)N2C(C(=O)[O-])=C(SC3Cn4cnc[n+]4C3)[C@H](C)[C@H]12 (stereo partly specified) : 8.14e-05

----------
Settings: in methanol, 308.15 K
experimental-readout: solubility (mole fraction)
Please state the value as a number alone, without comment.

solubility (mole fraction) in this record for C[C@@H](O)[C@H]1C(=O)N2C(C(=O)[O-])=C(SC3Cn4cnc[n+]4C3)[C@H](C)[C@H]12 (stereo partly specified) : 4.18e-05

----------
Conditions: in DMF, 308.15 K
experimental-readout: solubility (mole fraction)
Please state the value as a number alone, without comment.

solubility (mole fraction) in this record for C[C@@H](O)[C@H]1C(=O)N2C(C(=O)[O-])=C(SC3Cn4cnc[n+]4C3)[C@H](C)[C@H]12 (stereo partly specified) : 9.65e-05

----------
Settings: in DMF, 288.15 K
experimental-readout: solubility (mole fraction)
Please state the value as a number alone, without comment.

solubility (mole fraction) in this record for C[C@@H](O)[C@H]1C(=O)N2C(C(=O)[O-])=C(SC3Cn4cnc[n+]4C3)[C@H](C)[C@H]12 (stereo partly specified) : 6.44e-05
